Hello, the source for this data is PubChem BioAssay (NCI), in case you need it.

# Tested on: IGROV1 ovarian
# procedure-text: NCI tumour cell line growth inhibition, 48 h; in the data active means GI50 below about 0.43 µM; inactive means the rest
Answer with one of the outcomes given here: 1 for active, 0 for inactive

# input Assay outcome for CCN(CC)CCCCNc1c2ccccc2[n+](C)c2c1[nH]c1ccccc12 : what was it?
# output 0

# input Please share the test call associated with COc1cc(CSc2nc3ccc(C)cc3c(=O)n2-c2ccccc2)cc(OC)c1OC .
# output 0

# input Per the records of this test, what outcome belongs to O=[N+]([O-])O.[Cu+2].[NH-]CC[NH-].[NH-]CC[NH-] ?
# output 0

# input # outcome recorded in this test, key = C=C1C(=O)O[C@H]2[C@H]1CC/C(COC(=O)NCc1ccc(Cn3c(=O)sn(CCCl)c3=O)cc1)=C\CC[C@@]1(C)O[C@@H]21
# output 0

# input Please indicate how the test categorized COc1ccc2nc3cccc([N+](=O)[O-])c3c(NCCCCCC(=O)O)c2c1 .
# output 0

# input Give the logged outcome of this assay for the following molecule: COc1cc2c(c(OC)c1OC)-c1ccc(SC)c(=O)cc1C(CO)C2 (stereo not given)
# output 1

# input How did this test come out for Fc1ccc2c(c1)C1=NN(c3ccccc3)C(F)C1CO2 (stereo not given) ?
# output 0

# input Tell me the recorded outcome of this test for COc1ccc2c(c1)c(=O)oc1cc(OC/C(C)=N\O)ccc12 .
# output 0

# input What was the test verdict on CN(C)CCN1C(=O)c2ccccc2N(C)c2ccccc21 ?
# output 0

# input Just curious, what result did CN(O)c1nc(N(C)O)nc(N2CCOCC2)n1 get here?
# output 0

# input Field: outcome | Entry: COc1cc(C(=O)O[C@H](C(=O)NCCCCCNC(=O)[C@@H](OC(=O)c2cc(OC)cc3c(C)cccc23)[C@]2(C)CO2)[C@]2(C)CO2)c2cccc(C)c2c1
# output 0

# input Each molecule tested received a call. Report the one for CC/C=C1/C(=O)C=C[C@@H]1C/C=C\CCCC(=O)OC .
# output 0

# input What did this assay record as the result for COc1cc(NC(C)CCCNC2CN3CCC2CC3)c2ncccc2c1 (stereo not given) ?
# output 0

# input Per the records of this test, what outcome belongs to FC(F)(F)c1ccc(Nc2nc(-c3c(C(F)(F)F)nc4ccccn34)cs2)cc1 ?
# output 1

# input In this assay, the call recorded for O=C1Nc2ccccc2/C1=C/C(=O)c1coc2c1C(=O)c1ccccc1C2=O was what?
# output 0

----------
# Tested on: NCI-H23 lung
# procedure-text: NCI tumour cell line growth inhibition, 48 h
experimental-endpoint: TGI

// TGI value for COc1cc2c(c(O)c1OC)-c1c(cc(OC)c(OC)c1OC)CC(C)C(C)C2 (stereo not given) : > 100 µM

compound Cc1csc2c(=O)n(C3OC(CO)C(O)C3O)c(=O)[nH]c12 (stereo not given) , TGI observed: > 100 µM

TGI reported for this compound O=C(Nc1ccc(Cl)cc1)c1cc2cc(N=Nc3ccccc3Cl)ccc2oc1=O : 34.5 µM

Entry Cc1cc(=O)n(-c2ccccc2C)c(C)n1 ; TGI = > 100 µM

Record CN[C@@H](C)C(=O)N[C@H](C(=O)N1CCC[C@H]1C(=O)Nc1snnc1-c1ccccc1)C1CCCCC1 . Reported TGI: > 100 µM

----------
# System: SF-295 CNS
# procedure-text: NCI tumour cell line growth inhibition, 48 h
Decide by TGI: equal to or exceeding 30 µM means satisfied, less means not satisfied.

# input Is TGI at least 30 µM? Consider C=Cc1ccc(C)[n+](C[Si](C)(C)O[Si](C)(C)C)c1
# output satisfied

# input Record CC(C)(C)OC(=O)N1CCN(CCn2cc(C(F)(F)F)c3c(Cl)ncnc32)CC1 ; criterion: TGI no lower than 30 µM. Met?
# output not satisfied

# input Would you say COC(=O)C1(CCC(C)=O)CCCCCC1=O (stereo not given) shows TGI at minimum 30 µM?
# output satisfied

# input Answer whether TGI of CC(=O)OCC1OC(n2cnc(C(N)=S)c2N)C(OC(C)=O)C1OC(C)=O (stereo not given) is greater than or equal to 30 µM.
# output satisfied

# input Does CCOC(=O)c1cccn1S(=O)(=O)c1cc(Cl)ccc1NC(=O)CC have a reported TGI of at least 30 µM?
# output satisfied

# input Decide: TGI of CCOP(=O)(OCC)/C(C#N)=C/c1ncc[nH]1 >= 30 µM?
# output satisfied

# input Threshold query (TGI >= 30 µM) on COC(=O)C(=O)C(C(=O)C(=O)Nc1ccc(F)cc1)c1nc2ccc([N+](=O)[O-])cc2[nH]c1=O (stereo not given)
# output satisfied

# input Quick check, TGI >= 30 µM? CC(C)(C)c1ccc(Oc2nccc(-c3c(-c4ccc(F)cc4)ncn3C3CCNCC3)n2)cc1
# output not satisfied

# input Is reported TGI greater than or equal to 30 µM here: C=CCOc1cccc(C2(O)c3ccccc3C3=NCCCN32)c1 (stereo not given)
# output not satisfied

# input Please indicate if the recorded TGI for CCCCCCCCCCCCCCCCCCOc1ccccc1CC(=O)OCC[N+]1(C)CCCCC1 meets or exceeds 30 µM.
# output not satisfied

# input Check if TGI >= 30 µM (inclusive). Item: CN(C)CC/C(=N\Nc1ccc([N+](=O)[O-])cc1)c1ccccc1
# output not satisfied

# input Reported TGI reaches at least 30 µM for NN(CC(=O)O)CC(=O)O ?
# output satisfied

# input Check this compound for TGI at or above 30 µM: CCN(CC)c1c(C(=O)/C=C/c2ccc(OC)cc2)c(-c2ccccc2)nn(C)c1=O
# output satisfied

# input Please indicate if the recorded TGI for Cc1nn2c(/C=C3\C(=O)Nc4ccc(Cl)cc43)c(C)nc2s1 meets or exceeds 30 µM.
# output satisfied

# input Say whether CC1=NN(C(=O)c2ccccc2O)C(=O)/C1=C/c1ccco1 shows TGI of 30 µM or more.
# output satisfied

# input Is reported TGI greater than or equal to 30 µM here: Cc1cccc(C)c1NC(=O)C(C#N)C1=C(Cl)C(=O)c2ccccc2C1=O (stereo not given)
# output satisfied

# input Assess whether reported TGI for CN1CCOC(c2ccc(Cl)cc2)O1 (stereo not given) sits at 30 µM or higher.
# output satisfied

----------
# Test system: A549 NSCLC
# procedure-text: NCI tumour cell line growth inhibition, 48 h
Exercise: for every item that follows, state its recorded TGI.
Kindly provide the numeric value in µM only, without the unit symbol.

The observed TGI for Cc1cc2c(cc1C)N(C(=O)CCl)CC(=O)N2 when tested with A549 NSCLC stands at 26.7

Case COc1ccc2cc(C(=O)/C=C/c3ccc(Cl)cc3Cl)ccc2c1 , A549 NSCLC, TGI recorded as 31.9

TGI value, target or system A549 NSCLC, for O=C1/C(=C\c2ccc(O)cc2)CCC/C1=C/c1ccc(Cl)c(Cl)c1 : 15

----------
# Test system: SR leukemia
# procedure-text: NCI tumour cell line growth inhibition, 48 h
Kindly supply the reported TGI values for the records listed here.

Form: compound = NC1=C(NC(=O)Cc2ccc(F)cc2)C(=O)c2ccccc2C1=O ; TGI = > 100 µM

For record O=C(CCCCCCCCC(=O)N/N=C\c1ccccc1O)N/N=C\c1ccccc1O the listed TGI is 12.9 µM

Value of TGI reported for the compound CN1CCOC(c2ccc(Cl)cc2)O1 (stereo not given) is > 100 µM

The measured TGI associated with FC(F)(F)c1ccc(Nc2nc(-c3c(C(F)(F)F)nc4ccccn34)cs2)cc1 reads > 39.4 µM

The compound listed as CNS(=O)(=O)NN(C)S(=O)(=O)c1ccccc1 shows TGI equal to > 100 µM

----------
# System: KM12 colon
# procedure-text: NCI tumour cell line growth inhibition, 48 h
Answer each item with its documented TGI.

Value of measured TGI for the entry COc1c(C)c2c(c(O)c1C/C=C(\C)CCC(=O)O)C(=O)OC2 : > 100 µM

Entry CN1C(=Nc2ccccc2)SC1=Nc1ccccc1 , TGI reported as > 100 µM

Form field TGI, entry COC(=O)C1(CCC(C)=O)CCCCCC1=O (configuration not stated) : > 100 µM

So for COc1ccc(C2=CC(c3ccc4c(c3)OCO4)c3c(c4ccccc4oc3=O)O2)cc1OC (configuration not stated) , the logged TGI turned out to be > 100 µM

TGI in this record for Cc1ccc2nc(NC(=O)C(=O)C(C#N)c3nc4ccccc4s3)sc2c1 (configuration not stated) : > 100 µM

Form field TGI, entry CN(C)CCCSc1nc2ccccc2[nH]1 : > 100 µM

Reported TGI of O=C(O)c1cc([N+](=O)[O-])cc2c(=O)c3cnccc3[nH]c12 : > 100 µM

Form field TGI, entry O=C1c2ccccc2C(O)(O)C1(O)C1(O)C(=O)c2ccccc2C1(O)O (configuration not stated) : > 100 µM

Lab note: COc1ccc(C(=O)c2cc(OC)c(OC)c(OC)c2)cc1OC(=O)CCl gave TGI of > 100 µM

TGI reported for this compound c1ccc2c(c1)cc(C1NCCc3[nH]cnc31)c1ccccc12 (configuration not stated) : > 100 µM

Lab book: TGI of Cc1csc2[n+]1C(=O)/C(=C\c1ccc([N+](=O)[O-])cc1)S2 noted as 82.1 µM

The reported TGI of the compound O=C([O-])C[n+]1ccccc1 was > 100 µM

The measured TGI associated with C[N+](C)(C)CC(=O)N/N=C/c1oc(-c2c(O)ccc3ccccc23)c(-c2c(O)ccc3ccccc23)c1[N+](=O)[O-] reads 38.9 µM

GET /value?item= Cc1cc(=O)n(-c2ccccc2C)c(C)n1 &field=TGI returns > 100 µM

The compound listed as CCOc1ccc(NC(=O)C(=O)CC(=O)c2sc(NNC(C)=O)nc2C)cc1 shows TGI equal to > 100 µM

Entry Oc1ccccc1/C=C/c1csnn1 ; TGI = > 100 µM

// recorded TGI for COc1cc2ccc(/C=C\[N+](=O)[O-])cc2cc1OC : 19.3 µM

According to the records, this compound COc1cc(OC(=O)c2ccccc2)cc2c1C(=O)C=CC2=O displays TGI of 38.8 µM

The compound listed as C[C@H]1[C@H](C)CC[C@]2(CO)CC[C@]3(C)C(=CC[C@@H]4[C@@]5(C)CCCNC(C)(C)[C@@H]5CC[C@]43C)[C@H]12 shows TGI equal to 3.51 µM

Nc1ncnc2c1ncn2C=C=CCO yielded TGI of > 100 µM

For CC(=O)CC(=O)OC1CC(C)CCC1C(C)C (configuration not stated) the compound record lists TGI as > 100 µM

Consider COc1cc([N+](=O)[O-])c(OC)cc1-c1nc2sc(Cl)cn2c1/C(N)=N/C(=N)N . Its measured TGI is 9.16 µM
